# System: CCRF-CEM
# experimentNotes: NCI tumour cell line growth inhibition, 48 h
Calls of active or inactive are those of the source. No stated cut-off is given here; in the data, active = GI50 up to about 1.1 µM and inactive = higher.
Form entry, call: pick from T (active), F (inactive)

# example entries with known answers
>>> classname("O=S(=O)(O)c1cc(S(=O)(=O)O)c2c(/N=N/c3ccc(/N=N/c4ccccc4)cc3)c(O)ccc2c1")
"F"
>>> classname("N/N=C1N=C(Cl)/C(=C/c2ccco2)N\\1")
"F"
>>> classname("NC1=NCC(CN2CCCCC2)O1 (stereo unspecified)")
"F"
>>> classname("O=C(/C=C/c1ccc(C(F)(F)F)cc1)c1c([O-])on[n+]1-c1ccccc1")
"T"
>>> classname("CC(C)(C)C1CCC2c3c([nH]c4ccccc34)C3C(=O)N(c4ccc(C(=O)O)cc4)C(=O)C3C2C1 (stereo unspecified)")
"F"
>>> classname("CN1c2ccccc2C2=C(c3ccccc3)CC[C@@H](C(=O)N3C4CC5CC[C@@]4(CS3(=O)=O)C5(C)C)[C@@H]21 (stereo partly specified)")
"F"

Task item: Hey, what did the test say about CC1OC(=O)C2CC3CCCCC3C(/C=C/C3CCCC(C)N3C)C12 (stereo unspecified) ?
Reply: F

Task item: Kindly provide the recorded test outcome for the following molecule: CCCCc1nccc2c(C)c3[nH]c4ccccc4c3cc12
Reply: F

Task item: Called result for O=c1ccc(=O)c2c(=O)c3ccccc3c(=O)c1=2
Reply: F

Task item: What is the recorded call for this molecule in the test? c1ccc(CN2CCC3(CC2)SSC2(CCN(Cc4ccccc4)CC2)S3)cc1
Reply: F

Task item: Hey, what did the test say about Cc1ccc(S(=O)(=O)N2CCSCCSCCN(S(=O)(=O)c3ccc(C)cc3)CCN(S(=O)(=O)c3ccc(C)cc3)CC2)cc1 ?
Reply: F

Task item: For this molecule, state the assay outcome: COC(=O)c1ccccc1CC1Cc2cc3c(cc2C1)CCC3
Reply: F

Task item: Record request — test call for CC(C)(C)/N=C/N1C=Cc2nc3ccccc3cc2C1
Reply: F

Measured values drawn from ChEMBL document CHEMBL1201862 for this set.
